- target of assay: Drosophila OR98a (Drosophila melanogaster, UniProt Q9VAZ3)
- Construct: expressed in transfected cells
- Sequence (Q9VAZ3 whole entry): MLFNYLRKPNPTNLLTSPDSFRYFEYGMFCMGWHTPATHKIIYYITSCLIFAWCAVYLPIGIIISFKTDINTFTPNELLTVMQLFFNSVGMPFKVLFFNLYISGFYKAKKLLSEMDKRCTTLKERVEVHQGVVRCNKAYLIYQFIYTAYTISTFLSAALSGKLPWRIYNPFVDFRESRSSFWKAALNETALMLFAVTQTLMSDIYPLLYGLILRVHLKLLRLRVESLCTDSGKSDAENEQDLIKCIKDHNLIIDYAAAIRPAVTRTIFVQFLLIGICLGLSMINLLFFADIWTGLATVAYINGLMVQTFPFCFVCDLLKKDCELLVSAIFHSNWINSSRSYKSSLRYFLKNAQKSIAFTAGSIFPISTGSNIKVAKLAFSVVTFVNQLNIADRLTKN
- Sequence (Q9VNB5 whole entry partner): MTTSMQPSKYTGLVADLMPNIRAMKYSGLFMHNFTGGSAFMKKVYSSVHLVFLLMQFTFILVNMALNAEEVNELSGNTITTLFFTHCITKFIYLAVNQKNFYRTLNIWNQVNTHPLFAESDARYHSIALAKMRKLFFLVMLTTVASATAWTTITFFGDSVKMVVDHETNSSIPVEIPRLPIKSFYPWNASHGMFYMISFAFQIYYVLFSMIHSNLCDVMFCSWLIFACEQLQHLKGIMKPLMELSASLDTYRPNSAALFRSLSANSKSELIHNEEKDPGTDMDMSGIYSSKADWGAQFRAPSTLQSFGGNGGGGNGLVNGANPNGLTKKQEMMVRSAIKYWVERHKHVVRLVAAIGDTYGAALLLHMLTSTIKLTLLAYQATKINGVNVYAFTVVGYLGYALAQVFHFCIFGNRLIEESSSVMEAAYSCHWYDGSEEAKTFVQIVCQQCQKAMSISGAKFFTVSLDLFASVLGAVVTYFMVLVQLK
- assay overview: Calcium ion fluorescence (GCaMP6) assay, OR98a stable HEK293 cell line
- Format: cell-based
- test settings: concentration 100; normalized fluorescence change, values below 0.05 threshold given as 0
quantity: DF norm AVERAGE OR98a
// keep it numeric: no unit symbol after the value

Check out these entries, answers already filled in.
Item CCCCCCCCC(CO)CCCCCC (stereo not shown) was tested on Drosophila OR98a (Drosophila melanogaster, UniProt Q9VAZ3); the reported DF norm AVERAGE OR98a is 0

Value sought: DF norm AVERAGE OR98a, system Drosophila OR98a (Drosophila melanogaster, UniProt Q9VAZ3), item C=C1CC/C=C(\C)CC[C@@H]2[C@@H]1CC2(C)C [(-)-trans-caryophyllene] . Result: 0.05748

The recorded DF norm AVERAGE OR98a with Drosophila OR98a (Drosophila melanogaster, UniProt Q9VAZ3) for C=C(C)[C@H]1CC=C(C)CC1 [(R)-(+)-limonene] was 0

Proceeding to the next compound to report its DF norm AVERAGE OR98a.
Item C=CC(O)CCCCC (stereo not shown) ; assay system Drosophila OR98a (Drosophila melanogaster, UniProt Q9VAZ3); DF norm AVERAGE OR98a reported as 0.2102
